Origin of values: PubChem BioAssay (NCI)

experiment: NCI Yeast Anticancer Drug Screen. Data for the rad18 strain (AID 177); conditions: S. cerevisiae rad18 mutant growth inhibition; at 100.0 µM; active compounds read high
This is part of a sample that, as a whole, favours compounds with a hit. Of some 79,000 tested, about 15% had one in any assay.
Quantity name: growth inhibition (%)
Write the number in % without appending the unit.

Answered examples (5):
CCCCCCCCCCCCCCCCCCNC(=S)/N=C/c1c(O)c2ccccc2[nH]c1=O | 25
Cc1c(Cl)c(C)c(Cl)c(O)c1Cl | 97
COc1cc([N+](=O)[O-])c2ncccc2c1Br | 91
COc1ccc2nc3cccc([N+](=O)[O-])c3c(NCCNCCO)c2c1 | 95
CNC(=O)OCc1c2ccncc2c(C)c2c1[nH]c1ccccc12 | 87

Please indicate growth inhibition recorded for `O=C(c1ccccc1)[C@H]1Nc2ccc(Cl)cc2[C@H]2OCCC[C@@H]12` 92

Please indicate growth inhibition recorded for `C=CCNC1=C2C[C@@H](C)C[C@H](OC)[C@H](O)[C@@H](C)/C=C(\C)[C@H](OC(N)=O)[C@@H](OC)/C=C\C=C(/C)C(=O)NC(=CC1=O)C2=O` 95

Please indicate growth inhibition recorded for `CC(C)(CN1CCCCC1)C(=O)/C=C/c1c(Cl)cccc1Cl` 98

Please indicate growth inhibition recorded for O=C(NCCCCN1CC2CCCC2C1)C(C1CCCCC1)C1CCCCC1 (stereo unspecified) 98

Please indicate growth inhibition recorded for COc1ccc(C(OCC2OC(n3cnc4c(=O)n(Cc5ccccc5[N+](=O)[O-])nnc43)C(O)C2O)(c2ccccc2)c2ccc(OC)cc2)cc1 (stereo unspecified) 32

* * *

assay: NCI Yeast Anticancer Drug Screen. Data for the rad14 strain (AID 159);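 further: 0% = growth of vehicle-treated control cultures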; conditions: S. cerevisiae rad14 strain growth inhibition; at 33.0 µM
This is part of a sample that, as a whole, favours compounds with a hit. Of some 79,000 tested, about 15% had one in any assay. The source made the active and inactive calls. Rule as the data show it: active = growth inhibition above about 70%; inactive = the rest.
Lab note: assign the record to one of 1 (active), 0 (inactive)

Field: example entries. Status: answers known.
CC(C)(CN1CCCCC1)C(=O)CC(SCCS(=O)(=O)O)c1ccccc1 (configuration not stated) | 0
CCN(CC)CCNc1ccc(C)c2sc3ccc(O)cc3c(=O)c12 | 1
NC(CS)C(=O)NCCNc1ccc(NCCNC(=O)C(N)CS)c2c1C(=O)c1c(O)ccc(O)c1C2=O (configuration not stated) | 1
Cc1ccc(NC(=O)CCC(=O)C(C)C(=O)c2ccccc2)c(C)c1 (configuration not stated) | 0
CC1(C)C(O)OC(O)C1(C)C (configuration not stated) | 0
O=C(Cc1ccccc1)NNc1nc(NNC(=O)c2ccncc2)nc(Nc2ccc(Cl)cc2)n1 | 0
C=CC(C)(C)N1C(=O)C(C(C)=O)=C(O)C1Cc1c[nH]c2ccccc12 (configuration not stated) | 0
CC(C)=CCc1c2c(c(O)c3c(=O)c(-c4ccc(O)c(O)c4)coc13)C=CC(C)(C)O2 | 1
CSC(=S)N/N=C/c1ccccc1 | 0
CC(CN(C)C)C(=O)/C=C/c1ccc(Cl)c(Cl)c1 (configuration not stated) | 0

Status in this test for O=S(=O)(c1cccc(C(F)(F)F)c1)N1c2ccccc2-n2cccc2C1c1cccnc1 (configuration not stated) ? 1

Status in this test for `CN1CCN(C(=O)c2cccc3cccc(C(=O)O)c23)CC1` ? 0
